Test system: HCC1569
procedure.details: H1.0 immunofluorescence intensity relative to DMSO (% of DMSO); higher = stronger H1.0 induction, active = 140 or more
condition.parameters: concentration: 10 µM; 24 h
Outcomes you can answer with include only these: y for active, n for inactive

Called result for C=C1C(=CC=C2CCCC3(C)C2CCC3C(C)CCCC(C)(C)O)CC(O)CC1O (stereo not drawn) [Calcitriol]
n

Called result for COc1ccccc1OCC(O)CO (stereo not drawn)
n

----------
System: HCC1569
procedure.details: cell number relative to DMSO (% of DMSO); higher = more cells (less growth inhibition / toxicity)
condition.parameters: concentration: 10 µM; 24 h
Would you mind classing the entries by cell number? Ranges: bin 1 = under 90, bin 2 = from 90 up to 100, bin 3 = 100 and over

These solved cases illustrate the format of a correct answer.
{"columns": ["compound", "class.name"],
 "data": [
  ["Br.Br.N=C(N)SCCc1cccc(CCSC(=N)N)c1 [1,3-PBIT dihydrobromide]", "bin 3"],
  ["Cc1cc(Nc2cc(N3CCN(C)CC3)nc(Sc3ccc(NC(=O)C4CC4)cc3)n2)n[nH]1", "bin 1"],
  ["COc1cc2ncnc(Nc3ccc(F)c(Cl)c3)c2cc1OCCCN1CCOCC1 [Gefitinib]", "bin 1"],
  ["COc1cc(C(=O)c2ccc3ncccc3c2)cc(OC)c1OC", "bin 1"],
  ["CC(N)(Cc1ccc(O)c(O)c1)C(=O)O [L-alpha-Methyl DOPA]", "bin 2"],
  ["NC(N)=NC(N)=Nc1ccccc1 [1-Phenylbiguanide]", "bin 3"],
  ["Cc1c2c(c(O)c3c(O)cccc13)C(=O)OC2C1C(O)C(=O)C(C(N)=O)=C(O)C1N(C)C (racemic)", "bin 2"]
]}

Continue with the compound presented below.
Field: class (cell number) — entry: CC(NC(=O)C(C#N)=Cc1ccc(O)c(O)c1)c1ccccc1 (configuration not stated) [Tyrphostin AG 835]
bin 1

----------
System: HCC1569
procedure.details: cell number relative to DMSO (% of DMSO); higher = more cells (less growth inhibition / toxicity)
condition.parameters: concentration: 10 µM; 24 h
endpoint: cell number
Please respond with just the number, no unit label.

{"columns": ["compound", "assayed.target", "cell number"],
 "data": [
  ["COC(=O)C1=C(C)NC(C)=C(C(=O)OCC(C)C)C1c1ccccc1[N+](=O)[O-] (stereo not drawn) [Nisoldipine]", "HCC1569", 94.9],
  ["CN1CCN(C2=Nc3cc(F)ccc3Cc3ccccc32)CC1 [Fluperlapine]", "HCC1569", 104],
  ["O=C1NC(=O)C(c2ccccc2[N+](=O)[O-])=C1Nc1ccc(O)c(Cl)c1", "HCC1569", 96.8],
  ["CN(C)CCC=C1c2ccccc2Sc2ccc(Cl)cc21.Cl [Chlorprothixene hydrochloride]", "HCC1569", 90.2],
  ["OCCN(CCO)c1nc(N2CCCCC2)c2nc(N(CCO)CCO)nc(N3CCCCC3)c2n1 [Dipyridamole]", "HCC1569", 94.2],
  ["COc1cc(/C=C/C(=O)NCCn2c(C)cc3ccccc32)cc(OC)c1OC", "HCC1569", 103]
]}

Name the value of cell number reported for CC1(C)CC=C(c2cnc3ccccc3c2)c2cc(C(=O)Nc3ccc(C(=O)O)cc3)ccc21 when tested on HCC1569.
99.8

Name the value of cell number reported for CCN(CC)CCNC(=O)c1cc(Cl)c(N)cc1OC.Cl [Metoclopramide hydrochloride] when tested on HCC1569.
107
